So I've got a bunch of sequences here, and I need their PBM binding z-score values.
system: VDR:RXRa (NR concentration 270 nM, RXRa partner concentration 90 nM); assay: PBM binding z-score (relative to random genomic background probes); higher = stronger binding; sequences stand for … in GC…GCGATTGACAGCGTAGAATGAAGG
Give bare numbers.

ordered.residues: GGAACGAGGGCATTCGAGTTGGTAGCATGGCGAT
property.name: PBM binding z-score
reported.measurement: 2.35
//
ordered.residues: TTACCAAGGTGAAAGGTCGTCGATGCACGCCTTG
property.name: PBM binding z-score
reported.measurement: 3.09
//
ordered.residues: TGTTGTAGATCAAGCAGGTTAAGAAAGCCTGAGT
property.name: PBM binding z-score
reported.measurement: 0.0987
//
ordered.residues: CGAACTAGGTGATCCAGGACAGTGAATACATTGA
property.name: PBM binding z-score
reported.measurement: 0.541
//
ordered.residues: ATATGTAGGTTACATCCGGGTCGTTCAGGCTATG
property.name: PBM binding z-score
reported.measurement: 2.52
//
ordered.residues: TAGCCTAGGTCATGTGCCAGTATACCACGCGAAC
property.name: PBM binding z-score
reported.measurement: 2.35
//
ordered.residues: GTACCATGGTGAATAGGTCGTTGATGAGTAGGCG
property.name: PBM binding z-score
reported.measurement: -0.0102
//
ordered.residues: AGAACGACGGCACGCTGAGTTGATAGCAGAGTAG
property.name: PBM binding z-score
reported.measurement: -0.301
//
ordered.residues: TTACCAAGGTGAGCTGAGGTCGTGGATCCAACTC
property.name: PBM binding z-score
reported.measurement: 3.37
//
ordered.residues: ATCTCTAGGTAAAGATAGTTCAGTGAGTGCAAAT
property.name: PBM binding z-score
reported.measurement: 5.05

Dear reader, for each entry below, please note its PBM binding z-score.
1. ATCGAAAGGTCGAAGGTTAGTATACCCACCCGAA
2. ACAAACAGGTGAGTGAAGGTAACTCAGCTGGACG

Reply:
3.14
-0.124

----------
system: RARa homodimer (NR concentration 270 nM); assay: PBM binding z-score (relative to random genomic background probes); higher = stronger binding; sequences stand for … in GC…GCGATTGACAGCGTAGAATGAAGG
property.name: PBM binding z-score
Answers are plain numbers.

ordered.residues: GATACAGGGTCAGCTAGAGGCCCGAGTATGGAAA
PBM binding z-score: -0.152

Dear reader, for each entry below, please note its PBM binding z-score.
1. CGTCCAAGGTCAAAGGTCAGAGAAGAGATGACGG
2. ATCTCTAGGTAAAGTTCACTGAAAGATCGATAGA
3. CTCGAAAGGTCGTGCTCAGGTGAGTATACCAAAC
4. ATATGTAGGTTAAGGGTAATTCAGGTTGGTTCGC
5. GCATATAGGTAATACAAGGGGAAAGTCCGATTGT
6. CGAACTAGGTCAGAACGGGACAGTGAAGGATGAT
7. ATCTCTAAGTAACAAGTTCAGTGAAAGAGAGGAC

Reply:
1: 1.92; 2: 1.43; 3: 0.399; 4: 2.31; 5: 0.339; 6: -0.237; 7: 1.73

Dear reader, for each entry below, please note its PBM binding z-score.
1. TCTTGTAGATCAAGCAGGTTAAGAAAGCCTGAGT
2. GCAGACAGGTGAAACGCAGGCAACTCAGGGTGGC
3. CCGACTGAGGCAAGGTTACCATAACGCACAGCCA
4. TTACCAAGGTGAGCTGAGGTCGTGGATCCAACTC

Reply:
1. -0.0455
2. -0.602
3. 0.194
4. -0.727

----------
test system: PPARg:RXRa (NR concentration 180 nM, RXRa partner concentration 90 nM); test: PBM binding z-score (relative to random genomic background probes); higher = stronger binding; sequences stand for … in GC…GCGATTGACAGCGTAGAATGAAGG
// label = condition met if PBM binding z-score is not less than 0.6, otherwise condition not met

Example results:
ordered.residues: CCTAGCAGGCCAATCTGGTTCACTCAAGGCTTGA
classification: condition not met
--
ordered.residues: CGTCCAACGTCAATGCTAGGTCAGTGAAAGCATT
classification: condition not met
--
ordered.residues: ATTTGTAGGTTAGCTGGGGTCATTCAGACTAGGC
classification: condition met

Ask: Does the reported PBM binding z-score for "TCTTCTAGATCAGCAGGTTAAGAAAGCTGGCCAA" fall at or above the 0.6 mark?
Reply: condition not met

Ask: Does the reported PBM binding z-score for "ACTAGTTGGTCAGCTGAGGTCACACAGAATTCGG" fall at or above the 0.6 mark?
Reply: condition met

Ask: Does the reported PBM binding z-score for "CTCGAGAGGTCGTGCTCAGGTGAGTATACCAAAC" fall at or above the 0.6 mark?
Reply: condition met

Ask: Does the reported PBM binding z-score for "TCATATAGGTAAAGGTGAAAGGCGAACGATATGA" fall at or above the 0.6 mark?
Reply: condition met

Ask: Does the reported PBM binding z-score for "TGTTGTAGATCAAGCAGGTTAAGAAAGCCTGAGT" fall at or above the 0.6 mark?
Reply: condition not met

Ask: Does the reported PBM binding z-score for "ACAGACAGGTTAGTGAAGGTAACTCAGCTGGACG" fall at or above the 0.6 mark?
Reply: condition met

Ask: Does the reported PBM binding z-score for "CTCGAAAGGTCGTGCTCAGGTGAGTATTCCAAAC" fall at or above the 0.6 mark?
Reply: condition met

Ask: Does the reported PBM binding z-score for "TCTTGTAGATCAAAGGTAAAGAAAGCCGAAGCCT" fall at or above the 0.6 mark?
Reply: condition met

----------
system: LXRb homodimer (NR concentration 270 nM); experiment: PBM binding z-score (relative to random genomic background probes); higher = stronger binding; sequences stand for … in GC…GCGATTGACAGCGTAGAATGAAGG
property.name: PBM binding z-score

Field: example entries. Status: answers known.
ordered.residues: ATCGAAAGTTCGTGAGGTGAGTATACAGAAAGGC
PBM binding z-score: -0.197
//
ordered.residues: GCGACTGGGGCGAAGCAGGTTACCATAAGGTTGG
PBM binding z-score: -1.13

Dear reader, for each entry below, please note its PBM binding z-score.
1. TCTTGTAGATCAACAGGTGGTTAAGAAAGATCGA
2. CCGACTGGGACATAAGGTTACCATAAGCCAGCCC
3. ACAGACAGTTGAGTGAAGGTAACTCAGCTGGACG

Reply:
-0.293
-0.915
-0.26

Dear reader, for each entry below, please note its PBM binding z-score.
1. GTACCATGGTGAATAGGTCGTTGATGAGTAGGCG
2. AGAACGAGGGCAATGAGTTGATAACACGGGTGGC
3. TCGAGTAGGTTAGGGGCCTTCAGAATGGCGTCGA

Reply:
1: -0.524; 2: -0.584; 3: -0.986

Dear reader, for each entry below, please note its PBM binding z-score.
1. AGACTGAGGTTAAGATCAGGGAAACAGAATACAT
2. CCCGAAAGGTCGGTTGAGGTGAGTATACGGATAA
3. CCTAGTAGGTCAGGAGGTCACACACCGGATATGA
4. GCTAGGAGGCCATTTGGGTCACTCAATGACGGGC

Reply:
1: -0.417; 2: 0.134; 3: 0.811; 4: -0.985

----------
system: RARa:RXR (NR concentration 270 nM, RXRa partner concentration 90 nM); experiment: PBM binding z-score (relative to random genomic background probes); higher = stronger binding; sequences stand for … in GC…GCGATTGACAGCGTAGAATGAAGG
property.name: PBM binding z-score

Field: example entries. Status: answers known.
ordered.residues: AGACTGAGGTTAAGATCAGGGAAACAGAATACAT
property.name: PBM binding z-score
reported.measurement: 1.84
--
ordered.residues: GATACAGGGTCAAGACCAGAGTACGCGTATTGAT
property.name: PBM binding z-score
reported.measurement: 3.93
--
ordered.residues: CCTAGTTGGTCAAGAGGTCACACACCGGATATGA
property.name: PBM binding z-score
reported.measurement: 5.63
--
ordered.residues: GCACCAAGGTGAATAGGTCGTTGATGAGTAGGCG
property.name: PBM binding z-score
reported.measurement: 1.6

Dear reader, for each entry below, please note its PBM binding z-score.
1. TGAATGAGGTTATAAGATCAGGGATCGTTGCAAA
2. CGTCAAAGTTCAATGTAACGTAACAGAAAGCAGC
3. TCTATTAGTTGATTAGGGCAGCCGAAACAGCGGA
4. ATCTCTAGGTAACCAAGGTCAGTGAATGCCGAAC
5. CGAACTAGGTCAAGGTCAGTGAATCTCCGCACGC
6. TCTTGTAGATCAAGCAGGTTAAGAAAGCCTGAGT
7. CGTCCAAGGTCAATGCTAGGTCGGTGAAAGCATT

Reply:
1.24
3.03
0.394
2.26
3.61
0.546
4.18

Ask: Any idea what its PBM binding z-score is? The sequence is "TCGAGTAGATTACCAATGGGGCATTCAGCTTTCT"
Reply: -0.208
